The reported numbers originate from paper PMC5118688.

// values below are reported LOD (IC10)
- Test system: mAb3C9
- Assay: optimized chemosynthesized antigen-based dcELISA (mAb3C9 and hapten 6-OVA)
- Applied conditions: mAb3C9, Hapten 6-OVA
Note: unit ng/mL is implicit; provide only the numeric part.

// worked examples, LOD (IC10) included
{"Compound": "COP(=O)(OC)Oc1ccc([N+](=O)[O-])cc1 [Paraoxon-methyl]", "LOD (IC10) / ng/mL": 52.4}
{"Compound": "COc1nn(CSP(=S)(OC)OC)c(=O)s1 [Methidathion]", "LOD (IC10) / ng/mL": 0.6}
{"Compound": "COP(=S)(OC)Oc1c(Cl)cc(C)cc1Cl [Tolclofos-methyl]", "LOD (IC10) / ng/mL": 1.2}
{"Compound": "COP(=O)(OC)OC=C(Cl)Cl [Dichlorvos]", "LOD (IC10) / ng/mL": 24.0}
{"Compound": "COP(=S)(OC)Oc1ccc(S(=O)(=O)N(C)C)cc1 [Famphur]", "LOD (IC10) / ng/mL": 0.3}
{"Compound": "COP(=S)(OC)Oc1ccc([N+](=O)[O-])cc1 [Parathion-methyl]", "LOD (IC10) / ng/mL": 0.9}
{"Compound": "CCOP(=S)(OCC)SCn1nnc2ccccc2c1=O [Azinphos-ethyl]", "LOD (IC10) / ng/mL": 21.6}
{"Compound": "COP(=S)(OC)Oc1ccc([N+](=O)[O-])c(C)c1 [Fenitrothion]", "LOD (IC10) / ng/mL": 1.1}

Data request: State the recorded LOD (IC10) for this entry: CCOP(=S)(OCC)Oc1ccc([N+](=O)[O-])cc1 [Parathion]
Data returned: 466.3

Data request: State the recorded LOD (IC10) for this entry: COP(=O)(OC)O/C(=C\Cl)c1cc(Cl)c(Cl)cc1Cl [Tetrachlorvinphos]
Data returned: 8.9
